target: Ionotropic glutamate receptor NMDA 1/2D (Rattus norvegicus, UniProt P35439+Q62645); experiment: Positive allosteric modulation of recombinant rat GluN1/GluN2D receptor expressed in xenopus laevis oocyte assessed as potentiation of glutamate and glycine-induced current response at holding potential -40mV by two electrode voltage clamp method
Sequence (Q62645 whole entry, other chains not shown): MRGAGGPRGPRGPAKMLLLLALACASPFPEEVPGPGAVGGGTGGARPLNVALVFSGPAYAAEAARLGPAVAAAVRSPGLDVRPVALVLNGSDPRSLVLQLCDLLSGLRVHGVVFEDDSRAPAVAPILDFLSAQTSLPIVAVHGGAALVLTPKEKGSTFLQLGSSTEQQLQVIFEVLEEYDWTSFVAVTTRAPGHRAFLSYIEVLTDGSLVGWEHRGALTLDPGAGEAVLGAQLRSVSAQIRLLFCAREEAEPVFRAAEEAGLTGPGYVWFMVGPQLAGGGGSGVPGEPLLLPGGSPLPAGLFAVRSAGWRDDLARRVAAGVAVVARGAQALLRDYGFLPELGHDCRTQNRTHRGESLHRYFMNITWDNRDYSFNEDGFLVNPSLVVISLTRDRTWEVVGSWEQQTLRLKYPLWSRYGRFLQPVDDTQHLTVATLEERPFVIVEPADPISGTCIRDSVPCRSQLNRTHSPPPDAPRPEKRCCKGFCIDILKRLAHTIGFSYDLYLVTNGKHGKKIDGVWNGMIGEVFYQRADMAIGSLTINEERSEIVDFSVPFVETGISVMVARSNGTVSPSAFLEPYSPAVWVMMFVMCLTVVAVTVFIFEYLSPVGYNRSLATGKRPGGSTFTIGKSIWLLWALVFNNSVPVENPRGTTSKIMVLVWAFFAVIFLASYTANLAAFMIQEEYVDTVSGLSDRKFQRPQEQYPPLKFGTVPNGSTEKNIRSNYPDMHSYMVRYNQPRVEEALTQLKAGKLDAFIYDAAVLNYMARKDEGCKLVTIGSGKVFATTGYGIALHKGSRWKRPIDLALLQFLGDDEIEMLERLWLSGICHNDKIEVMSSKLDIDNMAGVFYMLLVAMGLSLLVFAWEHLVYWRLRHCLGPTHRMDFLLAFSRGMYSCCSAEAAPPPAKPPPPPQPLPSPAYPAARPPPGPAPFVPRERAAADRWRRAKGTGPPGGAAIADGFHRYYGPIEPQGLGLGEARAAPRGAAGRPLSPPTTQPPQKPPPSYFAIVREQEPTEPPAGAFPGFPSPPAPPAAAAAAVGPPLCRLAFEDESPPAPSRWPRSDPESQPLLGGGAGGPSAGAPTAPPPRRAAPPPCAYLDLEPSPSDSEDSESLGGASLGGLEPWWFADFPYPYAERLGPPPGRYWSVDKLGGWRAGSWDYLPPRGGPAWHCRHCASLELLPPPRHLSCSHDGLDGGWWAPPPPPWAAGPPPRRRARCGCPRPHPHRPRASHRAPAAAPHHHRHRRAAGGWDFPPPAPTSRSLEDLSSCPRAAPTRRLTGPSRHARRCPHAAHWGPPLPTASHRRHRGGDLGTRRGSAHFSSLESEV
pEC50: −log10 of the molar value.
experimental_endpoint: pEC50

CCC(CC)Oc1ccc2c(c1)CCN(C(=O)c1cccc(Cl)c1)C2COc1ccc(OC)cc1 (centres undefined): 5.77

a. CCOc1ccc(OCC2c3ccc(OC(C)C)cc3CCN2C(=S)c2ccc(F)c(Cl)c2)cc1 (centres undefined)
b. CCOc1ccc(OCC2c3ccc(OC(C)C)cc3CCN2C(=S)c2cccc(Cl)c2)cc1 (centres undefined)
Q: Larger number for pEC50: a , or b ? Respond with the label that goes with your answer.
Result: a

====

molecular target: Glutamate NMDA receptor; Grin1/Grin2c (Rattus norvegicus) (UniProt P35439+Q00961); assay: Positive allosteric modulation of recombinant rat GluN1/GluN2C receptor expressed in xenopus laevis oocyte assessed as potentiation of glutamate and glycine-induced current response at 30 uM at holding potential -40mV by two electrode voltage clamp method relative to control
experimental_endpoint: Emax (%)

Field: example entries. Status: answers known.
CCOc1ccc(OCC2c3ccc(OC(C)C)cc3CCN2C(=O)c2cccc(Br)c2)cc1 (configuration not stated): 135
CC(C)Oc1ccc2c(c1)CCN(C(=O)c1cccc(F)c1)C2COc1ccc(OC(F)(F)F)cc1 (configuration not stated): 157
COc1ccc(OCC2c3ccc(OC(C)C)cc3CCN2C(=O)c2ccc(Cl)cc2)cc1 (configuration not stated): 290
CCOc1ccc(OCC2c3ccc(OC4CCCC4)cc3CCN2C(=O)c2cccc(F)c2)cc1 (configuration not stated): 173
COc1ccc(OCC2c3ccc(N4CCOCC4)cc3CCN2C(=O)c2cccc(Br)c2)cc1 (configuration not stated): 314
COc1ccc(OCC2c3ccc(N(C)C)cc3CCN2C(=O)c2cccc(Br)c2)cc1 (configuration not stated): 293
CCOc1ccc(OCC2c3ccc(OC(C)C)cc3CCN2C(=O)c2ccc(F)c(F)c2)cc1 (configuration not stated): 150
CC(C)Oc1ccc(OCC2c3ccc(OC(C)C)cc3CCN2C(=S)c2cccc(F)c2)cc1 (configuration not stated): 158

1. COc1ccc(OCC2c3ccc(OC(C)C)cc3CCN2C(=S)c2cccc(Cl)c2)cc1 (configuration not stated)
2. COc1ccc(OCC2c3ccc(N(C)C(C)C)cc3CCN2C(=O)c2cccc(Cl)c2)cc1 (configuration not stated)
Q: Between 1 and 2 , which one shows the larger Emax value? Write down the label attached to your selection.
Result: 2
(2: 424%, 1: 225%)

====

molecular target: Glutamate NMDA receptor; Grin1/Grin2b (Rattus norvegicus) (UniProt P35439+Q00960); assay: Positive allosteric modulation of recombinant rat GluN1/GluN2B receptor expressed in xenopus laevis oocyte assessed as potentiation of glutamate and glycine-induced current response at 30 uM at holding potential -40mV by two electrode voltage clamp method relative to control
experimental_endpoint: Emax (%)

CC(C)Oc1ccc(OCC2c3ccc(OC(C)C)cc3CCN2C(=O)c2cccc(Cl)c2)cc1 (stereo unspecified): 160
CCOc1ccc(OCC2c3ccc(OC(C)C)cc3CCN2C(=S)c2cccc(Cl)c2)cc1 (stereo unspecified): 172
CC(C)Oc1ccc2c(c1)CCN(C(=O)c1cccc(F)c1)C2COc1ccc(OC(F)(F)F)cc1 (stereo unspecified): 123
CCOc1ccc(OCC2c3ccc(OC(C)C)cc3CCN2C(=O)c2ccc(F)c(F)c2)cc1 (stereo unspecified): 173
COc1ccc(OCC2c3ccc(N4CCOCC4)cc3CCN2C(=O)c2cccc(Br)c2)cc1 (stereo unspecified): 165
CCOc1ccc(OC[C@@H]2c3ccc(OC(C)C)cc3CCN2C(=O)c2cccc(F)c2)cc1: 204

1. CCOc1ccc(OCC2c3ccc(OC(C)C)cc3CCN2C(=S)c2ccc(F)c(Cl)c2)cc1 (stereo unspecified)
2. COc1ccc(OCC2c3ccc(NC(C)C)cc3CCN2C(=O)c2cccc(Cl)c2)cc1 (stereo unspecified)
Q: // compare: 1 vs 2 , metric Emax, want the smaller Mark your selection by writing its label.
Result: 2
(2: 141%, 1: 222%)

A. CCOc1ccc(OCC2c3ccc(OC4CCCC4)cc3CCN2C(=O)c2cccc(F)c2)cc1 (stereo unspecified)
B. CCOc1ccc(OCC2c3ccc(OC(C)C)cc3CCN2C(=O)c2cccc(Br)c2)cc1 (stereo unspecified)
Q: Recorded Emax values differ for A and B ; which one is higher? Record your answer as the label of the chosen record.
Result: A
